Reported log10 IC50 values are given for each entry in this list.
- test.system: UniProtKB P00784
- Sequence (P00784 134-345): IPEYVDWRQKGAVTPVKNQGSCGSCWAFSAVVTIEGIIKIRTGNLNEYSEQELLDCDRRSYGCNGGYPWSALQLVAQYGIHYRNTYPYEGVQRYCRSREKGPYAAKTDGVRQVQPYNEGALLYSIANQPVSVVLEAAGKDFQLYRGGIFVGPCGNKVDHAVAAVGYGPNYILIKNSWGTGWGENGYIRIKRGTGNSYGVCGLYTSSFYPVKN
- test.summary: In vitro assay procedure for papain (inhibition)
- Type: biochemical
- condition.parameters: pH 6.5, 10 min incubation at room temperature, substrate N-CBZ-Pro-Phe-Arg-pNA; read-out: IC50 Papain
- Procedure: To a 170 μl of enzyme-buffer mixture (enzyme: papain, diluted to give 30 mOD/min, buffer: 0.2 M potassium phosphate, 1.0 mM EDTA, 5 mM L-Cysteine, pH 6.5) a 10 μL of inhibitor (dissolved in DMSO) was added. After 10 min of incubation at room temperature, a 20 μl of 10 mM substrate (N-CBZ-Pro-Phe-Arg-pNA, dissolved in DMSO) was added to initiate reaction. Reading is followed up for 3 min at the Thermomax plate reader (absorbance at 405 nm) […]
Hello, just confirming the data are log10 of IC50 with units of µM.

Some compounds with known log10 IC50 results, for comparison:
Inquiry: Reported log10 IC50 for O=C(N[C@@H](Cc1ccccc1)C(=O)OC[C@H]1CN2C(=O)C[C@@H]2O1)OCc1ccccc1 (mixture of isomers) [Example 4] : what is it?
Reply text: -0.62

Inquiry: Reported log10 IC50 for O=C(NC(CO)C(=O)OCC1CN2C(=O)CC2O1)OCc1ccccc1 (stereo not drawn) [Example 69] : what is it?
Reply text: 0.18

New cases:
Inquiry: Reported log10 IC50 for O=C(CNC(=O)[C@H](Cc1ccccc1)NC(=O)OCc1ccccc1)OC[C@H]1CN2C(=O)C[C@@H]2O1 (mixture of isomers) [Example 7] : what is it?
Reply text: 0.55

Inquiry: Reported log10 IC50 for N#Cc1ccc(C(=O)OCC2CN3C(=O)CC3O2)cc1 (stereo not drawn) [Example 55] : what is it?
Reply text: -0.13

Inquiry: Reported log10 IC50 for O=C(NCC1CN2C(=O)CC2O1)C1CCCCC1 (stereo not drawn) [Example 75] : what is it?
Reply text: 0.60

Inquiry: Reported log10 IC50 for CC(N)C(=O)NCC1CN2C(=O)CC2O1 (stereo not drawn) [Example 26] : what is it?
Reply text: 0.46

Inquiry: Reported log10 IC50 for O=C(OCC1CN2C(=O)CC2O1)c1ccc(O)c(O)c1 (stereo not drawn) [Example 50] : what is it?
Reply text: 0.40

Inquiry: Reported log10 IC50 for CC(=O)NCC[S+]([O-])CC1CN2C(=O)CC2O1 (stereo not drawn) [Example 34] : what is it?
Reply text: 0.58

Inquiry: Reported log10 IC50 for O=C(O)CS(=O)(=O)CC1CN2C(=O)CC2O1 (stereo not drawn) [Example 35] : what is it?
Reply text: 1.11

###

Reported log10 IC50 values are given for each entry in this list.
- test.system: cathepsin B (Rattus norvegicus, UniProt P00787)
- Sequence (P00787 80-339): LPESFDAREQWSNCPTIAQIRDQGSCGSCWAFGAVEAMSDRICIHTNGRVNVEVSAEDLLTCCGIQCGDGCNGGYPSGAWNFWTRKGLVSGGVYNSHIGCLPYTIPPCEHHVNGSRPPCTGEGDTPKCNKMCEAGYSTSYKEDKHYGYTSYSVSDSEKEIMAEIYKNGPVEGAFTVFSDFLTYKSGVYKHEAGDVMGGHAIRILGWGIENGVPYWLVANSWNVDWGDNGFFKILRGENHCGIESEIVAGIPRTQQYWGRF
- test.summary: In vitro assay procedure for cathepsin B (inhibition)
- Format: biochemical
- condition.parameters: rat cathepsin B, pH 5.1, 10 min incubation at room temperature, substrate N-CBZ-Phe-Arg-AMC; read-out: IC50 Cathepsin B
Hello, just confirming the data are log10 of IC50 with units of µM.

Some compounds with known log10 IC50 results, for comparison:
Inquiry: Reported log10 IC50 for NC(Cc1ccccc1)C(=O)NCC1CN2C(=O)CC2O1 (stereo not drawn) : what is it?
Reply text: 0.49

Inquiry: Reported log10 IC50 for NC(CC(=O)O)C(=O)NCC1CN2C(=O)CC2O1 (stereo not drawn) : what is it?
Reply text: 1.10

Inquiry: Reported log10 IC50 for Cc1ccc(S(=O)(=O)NCC2CN3C(=O)CC3O2)cc1 (stereo not drawn) : what is it?
Reply text: -0.17

New cases:
Inquiry: Reported log10 IC50 for CC(C)C[C@H](NC(=O)OCc1ccccc1)C(=O)N1CCC[C@H]1C(=O)OC[C@H]1CN2C(=O)C[C@@H]2O1 (mixture of isomers) : what is it?
Reply text: 0.46

Inquiry: Reported log10 IC50 for O=C(OCC1CN2C(=O)CC2O1)c1ccc(O)c(O)c1 (stereo not drawn) : what is it?
Reply text: -0.34

Inquiry: Reported log10 IC50 for O=C(OCC1CN2C(=O)CC2O1)c1ccc2c(c1)C(=O)c1ccccc1C2=O (stereo not drawn) : what is it?
Reply text: -0.28

Inquiry: Reported log10 IC50 for NC(CCC(=O)OCC1CN2C(=O)CC2O1)C(=O)O (stereo not drawn) : what is it?
Reply text: 1.08

Inquiry: Reported log10 IC50 for O=C1CC2OC(C[S+]([O-])Cc3ccccc3)CN12 (stereo not drawn) : what is it?
Reply text: 0.94
